system: Saccharomyces cerevisiae; assay: protein stability index of tFT-peptide fusion (C-terminal peptide) (PSI (0-1 scale)); higher = more stable (slower turnover); conditions: genetic background: wild type; temperature: 30 C
Reported protein stability index maps to class as: 1: < 0.6; 2: ≥ 0.6 and < 0.7; 3: ≥ 0.7

# count of solved cases: 8
SSLFVISIPFRS = 2
RGCLVHSGFFIV = 1
MGGVEMSNRIWE = 2
PFPPPSPPPPSS = 2
DFGVRLGGPRTL = 2
VLQEFTFPKVGL = 2
TGPLVHLLCCCV = 1
TSVVLPGPAVSR = 3

Exam item: Would you mind sorting RLKTNKVIIKIK into the appropriate category?
Marked response: 2

Exam item: Would you mind sorting YTSHRGKVYMSV into the appropriate category?
Marked response: 2

Exam item: Would you mind sorting PLPLPPPSLSPL into the appropriate category?
Marked response: 3

Exam item: Would you mind sorting LRNYKCLRLLIC into the appropriate category?
Marked response: 1

###

Give measured protein stability index for each item. Keep answers brief.
tested on: Saccharomyces cerevisiae; assay: protein stability index of tFT-peptide fusion (C-terminal peptide) (PSI (0-1 scale)); higher = more stable (slower turnover); conditions: genetic background: wild type; temperature: 30 C

AGSLFEVECNGS = 0.746
IQKNKQEVKTNI = 0.685

Next item in the queue.
Exam item: Report protein stability index, nothing else, for this sequence: GGGAGGVVGGIS
Marked response: 0.694

###

Give measured protein stability index for each item. Keep answers brief.
tested on: Saccharomyces cerevisiae; experiment: protein stability index of tFT-peptide fusion (C-terminal peptide) (PSI (0-1 scale)); higher = more stable (slower turnover); conditions: genetic background: wild type; temperature: 30 C
One number for each entry.

Observe how each entry below is paired with its result.
FASPPPLPLPPH = 0.694
TEVWSGFARWGG = 0.675

Provide reported protein stability index for each item, in the same order as listed.
1. GDNRSVSRKAEW
2. RWTKMNNLIIEF
3. ALSGLARFIVCH
4. VGWQGRWWLWGG
5. GGASRLARMGWW
6. GAVRGGSGDWGR

Marked response:
1: 0.614; 2: 0.747; 3: 0.428; 4: 0.568; 5: 0.642; 6: 0.723

###

Give measured protein stability index for each item. Keep answers brief.
system: Saccharomyces cerevisiae; assay: protein stability index of tFT-peptide fusion (C-terminal peptide) (PSI (0-1 scale)); higher = more stable (slower turnover); settings: genetic background: wild type; temperature: 30 C
Answers are plain numbers.

SPSTPQALSNFS = 0.715
LPPRIPRPDVSF = 0.72
GVRYFKWGCTHG = 0.684
PTPGSPPPPLHP = 0.706
GGEGWGAFWGGE = 0.713

Provide reported protein stability index for each item, in the same order as listed.
1. TTLFLPAGYACR
2. PMLSLFRYNVVR

Marked response:
1. 0.707
2. 0.697

###

test system: Saccharomyces cerevisiae; assay: protein stability index of tFT-peptide fusion (C-terminal peptide) (PSI (0-1 scale)); higher = more stable (slower turnover); conditions: genetic background: cdc53-1; temperature: 37 C
Give measured protein stability index for each item. Keep answers brief.
Numbers only.

Observe how each entry below is paired with its result.
VLRCIWLCFLSV = 0.513
LVYCWFAEYFLV = 0.561
YCSIQIQLVYGI = 0.41

Exam item: Report protein stability index, nothing else, for this sequence: LFHSIPRLLLLK
Marked response: 0.0485

###

system: Saccharomyces cerevisiae; assay: protein stability index of tFT-peptide fusion (C-terminal peptide) (PSI (0-1 scale)); higher = more stable (slower turnover); conditions: genetic background: wild type; temperature: 30 C
result-type: protein stability index
Give bare numbers.

Observe how each entry below is paired with its result.
RKFVFNPPKPRK [CYT1 C-terminal 12 aa] = 0.694
KPRKKAKALPKT [RTT109 C-terminal 12 aa] = 0.737
LKLNHSFATIFK [MCM21 C-terminal 12 aa] = 0.677
GLEKKKKKQNNQ [NPR1 C-terminal 12 aa] = 0.662
RYKILDLIISKL [UTP6 C-terminal 12 aa] = 0.683

Provide reported protein stability index for each item, in the same order as listed.
1. DMMMLFGAEGDE [TAF7 C-terminal 12 aa]
2. DEDLWEEQEVCP [YGR017W C-terminal 12 aa]

Marked response:
1. 0.707
2. 0.709

Provide reported protein stability index for each item, in the same order as listed.
1. VSIKKLGRKLEN [FYV6 C-terminal 12 aa]
2. NLAGRKNSRDNE [LOT5 C-terminal 12 aa]
3. GVFEADGLEAVH [YLR235C C-terminal 12 aa]

Marked response:
1: 0.647; 2: 0.677; 3: 0.769

Provide reported protein stability index for each item, in the same order as listed.
1. TSSTPLVIVDSK [HXT10 C-terminal 12 aa]
2. GTKEYCKMIDFL [YLR108C C-terminal 12 aa]

Marked response:
[0.713, 0.688]

Provide reported protein stability index for each item, in the same order as listed.
1. TFVDDKLKELPQ [PTP3 C-terminal 12 aa]
2. IDSIDDLVDSDT [NPP1 C-terminal 12 aa]
3. VVIIVPIVVHFS [SNC2 C-terminal 12 aa]
4. GVRRSVRLNNRV [MCM4 C-terminal 12 aa]
5. ELASYILKELNL [KIN2 C-terminal 12 aa]
6. MFGKLGRYLYSH [NSG2 C-terminal 12 aa]
7. DFNDSSNLKKTR [CLN3 C-terminal 12 aa]

Marked response:
1: 0.655; 2: 0.685; 3: 0.425; 4: 0.681; 5: 0.702; 6: 0.211; 7: 0.693

Provide reported protein stability index for each item, in the same order as listed.
1. AVSVPRISSPMH [ICS3 C-terminal 12 aa]
2. NEMRERLRALQN [VPS24 C-terminal 12 aa]
3. MNSAMNVQPTGF [CHC1 C-terminal 12 aa]
4. MGIRLRYNVEPK [RPA135 C-terminal 12 aa]
5. KGDGKFWSSKKD [OM45 C-terminal 12 aa]

Marked response:
0.73
0.685
0.662
0.663
0.674

Provide reported protein stability index for each item, in the same order as listed.
1. VRKNVTWNNLWE [CTF18 C-terminal 12 aa]
2. ETARNLAEYNGE [SEC72 C-terminal 12 aa]
3. IGPLAFLVFKTA [DYN2 C-terminal 12 aa]
4. YHKLVDEVFQHL [MPA43 C-terminal 12 aa]
5. NWSNQQINVQSS [PHM8 C-terminal 12 aa]

Marked response:
1. 0.682
2. 0.728
3. 0.18
4. 0.688
5. 0.674

Exam item: Report protein stability index, nothing else, for this sequence: GWPLKDGNKKRK [OTO1 C-terminal 12 aa]
Marked response: 0.706

###

system: Saccharomyces cerevisiae; experiment: protein stability index of tFT-peptide fusion (C-terminal peptide) (PSI (0-1 scale)); higher = more stable (slower turnover); conditions: genetic background: das1 deletion; temperature: 30 C
Give measured protein stability index for each item. Keep answers brief.
Answers are plain numbers.

Observe how each entry below is paired with its result.
WVRIIIKLRASL = 0.34
FCCFFVHMSFFL = 0.298
VRWLVFFLFLFG = 0.406

Next item in the queue.
Exam item: Report protein stability index, nothing else, for this sequence: IPRSCRIRLAVL
Marked response: 0.562

###

Give measured protein stability index for each item. Keep answers brief.
tested on: Saccharomyces cerevisiae; test: protein stability index of tFT-peptide fusion (C-terminal peptide) (PSI (0-1 scale)); higher = more stable (slower turnover); conditions: genetic background: wild type; temperature: 30 C
One number for each entry.

Observe how each entry below is paired with its result.
PMPGRSEREYQV = 0.711
GLGGGVGGGLVV = 0.705

Next item in the queue.
Exam item: Report protein stability index, nothing else, for this sequence: NGTGGASSLAFG
Marked response: 0.689

###

tested on: Saccharomyces cerevisiae; experiment: protein stability index of tFT-peptide fusion (C-terminal peptide) (PSI (0-1 scale)); higher = more stable (slower turnover); conditions: genetic background: wild type; temperature: 37 C
result-type: protein stability index
One number for each entry.

Observe how each entry below is paired with its result.
FSFSFWALLWFP = 0.537
VSLLSLGYVFVY = 0.319

Provide reported protein stability index for each item, in the same order as listed.
1. LCYVLLWLLCRS
2. SFIFFVSCFFIF
3. FLFCACIRVFSY
4. FGGYLRAGVFLT

Marked response:
1. 0.501
2. 0.416
3. 0.195
4. 0.586

###

tested on: Saccharomyces cerevisiae; test: protein stability index of tFT-peptide fusion (C-terminal peptide) (PSI (0-1 scale)); higher = more stable (slower turnover); details: genetic background: wild type; temperature: 30 C
result-type: protein stability index
Give bare numbers.

Provide reported protein stability index for each item, in the same order as listed.
1. PPPPLPPPTLPT
2. WVGAVVGAGGRW
3. GGQGFWRLWCLG
4. IRLPHPPLPPSP
5. PPTLPFSARSPP
6. RGFMLGFVSRFS
7. RPGGVRVVSIQL

Marked response:
1. 0.726
2. 0.614
3. 0.686
4. 0.667
5. 0.659
6. 0.625
7. 0.672
